Target: CAAX prenyl protease 2 (Saccharomyces cerevisiae (strain ATCC 204508 / S288c)) (UniProt Q03530)
Sequence (Q03530 whole entry, looked up): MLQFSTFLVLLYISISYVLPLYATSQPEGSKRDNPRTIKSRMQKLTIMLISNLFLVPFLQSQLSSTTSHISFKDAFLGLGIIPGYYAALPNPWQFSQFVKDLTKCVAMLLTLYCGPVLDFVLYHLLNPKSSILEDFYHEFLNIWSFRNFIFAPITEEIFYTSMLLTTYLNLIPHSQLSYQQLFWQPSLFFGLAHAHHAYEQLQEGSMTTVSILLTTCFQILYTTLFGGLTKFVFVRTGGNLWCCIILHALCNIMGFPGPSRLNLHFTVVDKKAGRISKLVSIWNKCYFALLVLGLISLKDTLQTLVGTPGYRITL
Assay: blockers of Rce1 CaaX peptide cleavage – biochemical, fluorescence, cell-free homogeneous, primary screen (AID 2563)
Details: yeast membranes, quenched prenylated peptide cleavage fluorescence
Among all 290,000 compounds or so, about 800 (0.28%) were called active. For the sample, actives were picked, then their nearest neighbours and some compounds at random.
readoutName: outcome

Here's what some known entries look like.
• CCN(CC)c1ccc(NC(=O)c2ccc(=O)[nH]c2)cc1S(=O)(=O)Nc1ccc(OC)cc1 = inactive
• Cc1cccc(N(Cc2ccccc2)C(=O)c2cc(S(=O)(=O)N3CCOCC3)ccc2F)c1 = inactive
• Cc1ccccc1OCC(=O)Nc1ccc2c(c1)ncn2C = inactive
• Cc1nc2ccccn2c(=O)c1NC(=O)c1cccs1 = inactive
• COc1ccc(C(=O)N(Cc2ccccc2)c2ccc(C)cc2)cc1S(=O)(=O)N1CCOCC1 = inactive
• COc1ccc([C@@H]2[C@@H]3C(=O)N(C(C)(C)C)C(=O)[C@@H]3[C@]3(Cc4ccccc4)C(=O)N(c4cccc(Br)c4)C(=O)N23)cc1 = inactive

Which outcome value is on record for CC(=O)N(Cc1cccs1)C1CCOC(C)(C)C1 (configuration not stated) ?
active

Name the recorded outcome for `O=C(CCC(=O)c1cccs1)Nc1nc2ccccc2s1` .
inactive

Query (molecule): `Cc1ccc(S(=O)(=O)N2CCCCC2)cc1C(=O)N(C)CC(=O)Nc1cccc(F)c1` ; field requested: outcome
inactive

Record request: outcome value, item `CC(=O)Nc1ccc(NC(=O)CSc2nnnn2C2CCCCC2)cc1`
inactive

Report outcome for CC(=O)NC(Cc1c[nH]c2ccccc12)C(=O)O (configuration not stated) please.
active

###

Target: CAAX prenyl protease 2 (Saccharomyces cerevisiae (strain ATCC 204508 / S288c))
Assay: blockers of Rce1 CaaX peptide cleavage – biochemical, fluorescence, cell-free homogeneous, primary screen (AID 2563)
Settings: yeast membranes, quenched prenylated peptide cleavage fluorescence
The campaign covered roughly 290,000 compounds. About 800 (0.28%) were called active.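 The calls were made as follows: active = fall in fluorescence gain of 50% or more versus controls, with final raw signal at or below 3038400; inconclusive = same 50% fall but final raw signal above 3038400; inactive = fall in fluorescence gain under 50%.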 The sample as a whole holds a higher share of actives than the screen did.
Could you please pick one outcome from this set? active, inactive

Illustrative cases are given below, each with its answer.
• COc1ccc(Cl)cc1NS(=O)(=O)c1cccc(C(=O)NC2CCC(O)CC2)c1 (stereo unspecified) = inactive
• CC(=O)NN1C(=O)c2ccccc2NC1c1ccccc1 (stereo unspecified) = active
• CCN(Cc1ccccc1)C(=O)Cc1ccc(OC)c(S(=O)(=O)N2CCOCC2)c1 = inactive
• Cc1cc(/C=N/n2cnnc2)c(C)n1-c1ccc2ncccc2c1 = inactive
• C=CCc1ccccc1OCC(=O)N/N=C/c1ccccc1OCC = inactive

// return assay outcome for `O=C(COc1coc(CN2CCN(c3ccccc3)CC2)cc1=O)Nc1ccccc1F`
inactive

Assay result, entry `COc1ccccc1C(=O)NNC(=O)c1ccc(NC(=O)c2ccccc2)cc1` — outcome?
active

Write down the call the test reported for this compound. Item: `COc1ccccc1CNC(=O)CSc1nc(=O)n(Cc2ccncc2)c2c1CCC2`
inactive

Hello, I am checking results. What call was entered for `Cc1ccc2nc(NC(=O)CSc3nc(=O)n(CCCN(C)C)c4c3CCC4)sc2c1` ?
inactive

Just curious, what result did `O=C(CN1CCN(c2ccccn2)CC1)Nc1ccc(Br)cc1` get here?
inactive

###

Target: CAAX prenyl protease 2 (Saccharomyces cerevisiae (strain ATCC 204508 / S288c)) (UniProt Q03530)
Assay: blockers of Rce1 CaaX peptide cleavage – biochemical, fluorescence, cell-free homogeneous, primary screen (AID 2563)
Details: yeast membranes, quenched prenylated peptide cleavage fluorescence
The whole screen tested about 290,000 compounds, of which about 800 (0.28%) were called active.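 Rule for the calls: active = fall in fluorescence gain of 50% or more versus controls, with final raw signal at or below 3038400; inconclusive = same 50% fall but final raw signal above 3038400; inactive = fall in fluorescence gain under 50%.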 For the sample, actives were picked, then their nearest neighbours and some compounds at random.
Thanks in advance; please answer with one of these: t (active), f (inactive)

• CC(=O)c1ccc(S(=O)(=O)Nc2ccc(-c3ccc4nncn4n3)cc2)cc1 = f
• CC(=O)NC(Cc1c[nH]c2ccccc12)C(=O)NCCc1ccccc1 (stereo unspecified) = f
• O=C(NCC(=O)N1CCCC(C(F)(F)F)C1)c1ccccc1F (stereo unspecified) = f

Answer briefly: the call reported for CN(C)c1ccc(/C=N/NC(=O)C(O)c2ccc(Br)cc2)cc1 (stereo unspecified) in this assay.
t

Each molecule tested received a call. Report the one for `COCCCN(C(=O)CSCc1ccc(C)cc1)c1c(N)n(Cc2ccccc2)c(=O)[nH]c1=O` .
f

In this assay, the call recorded for `Cc1c(C)n2c(SCC(=O)N3CCCC3)nnc2[nH]c1=O` was what?
f

Outcome? CCOC(=O)NN1C(=O)c2ccccc2NC1c1cccc(O)c1 (stereo unspecified)
f

// param item: `CN(C)c1ccc(/C=N/NC(=O)c2ccc(Cn3cc(Br)cn3)o2)cc1` ; yields the recorded call
f

Hi, sorry to bother you, what did the test record for `CCOC(=O)c1cc(C(C)C)sc1NC(=O)COC(=O)c1nccnc1N` ?
f

Returns: the outcome recorded for `Cc1ccc2nnn(Cc3cccc(C(C)(C)C)c3O)c2c1` in this assay.
f

In this assay, the call recorded for `CCN(CC(=O)Nc1c(F)cccc1F)C(=O)c1ccc(S(=O)(=O)N2CCCCC2)cc1` was what?
f
